Could you please report measured residual activity for the items listed next?
- experimentalTarget: DSTYK (human) (UniProt Q6XUX3)
- Sequence (Q6XUX3 whole entry, looked up): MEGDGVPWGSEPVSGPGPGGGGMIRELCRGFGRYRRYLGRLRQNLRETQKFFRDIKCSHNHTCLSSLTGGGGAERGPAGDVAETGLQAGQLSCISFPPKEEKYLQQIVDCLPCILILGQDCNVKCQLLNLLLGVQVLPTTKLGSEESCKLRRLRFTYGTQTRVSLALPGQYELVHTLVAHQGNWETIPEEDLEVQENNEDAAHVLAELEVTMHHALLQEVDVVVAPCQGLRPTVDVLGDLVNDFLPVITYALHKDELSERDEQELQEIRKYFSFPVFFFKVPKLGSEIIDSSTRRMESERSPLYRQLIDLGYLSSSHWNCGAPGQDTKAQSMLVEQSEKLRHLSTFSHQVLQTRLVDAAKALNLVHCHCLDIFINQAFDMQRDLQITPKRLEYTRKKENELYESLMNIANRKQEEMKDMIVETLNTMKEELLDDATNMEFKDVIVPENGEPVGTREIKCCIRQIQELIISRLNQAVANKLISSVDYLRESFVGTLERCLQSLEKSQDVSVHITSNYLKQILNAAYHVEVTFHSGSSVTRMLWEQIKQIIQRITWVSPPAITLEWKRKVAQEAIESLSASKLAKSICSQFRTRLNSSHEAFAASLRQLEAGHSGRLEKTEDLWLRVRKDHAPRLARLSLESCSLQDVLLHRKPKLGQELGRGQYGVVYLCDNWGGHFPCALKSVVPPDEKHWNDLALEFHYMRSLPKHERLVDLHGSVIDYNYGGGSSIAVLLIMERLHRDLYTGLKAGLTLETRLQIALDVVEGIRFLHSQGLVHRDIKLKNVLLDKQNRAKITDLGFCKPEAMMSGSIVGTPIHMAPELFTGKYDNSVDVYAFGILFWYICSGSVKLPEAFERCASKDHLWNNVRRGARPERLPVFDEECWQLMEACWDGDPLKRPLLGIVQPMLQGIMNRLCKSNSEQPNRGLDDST
- assayOverview: radiometric filter-binding kinase assay, Kinase HotSpot
- conditionDetails: compound 0.5 µM; ATP 10 µM
Your reply should be a number followed by the unit it is expressed in.

Use these answered entries as a reference point.
1) N#CC(C#N)=C(N)/C(C#N)=C/c1ccc(O)cc1 = 92.9%
2) Nc1ccc2ncnc(NCCc3ccc(Oc4ccccc4)cc3)c2c1 = 101%
3) O=C1Nc2ccc(Cl)cc2/C1=C/c1cc(Cl)c(O)c(Cl)c1 = 89.6%

// input: 3 molecules below; output: residual activity for each
1. CCN(CC)CCNC(=O)c1c(C)[nH]c(/C=C2\C(=O)Nc3ccc(F)cc32)c1C
2. CC#CC(=O)Nc1cc2c(Nc3ccc(F)c(Cl)c3)ncnc2cn1
3. CCOC(=O)c1c(C)[nH]c(/C=C2\C(=O)Nc3ccccc32)c1C

A.
["111%", "91.1%", "90.8%"]

For each of the molecules below, state residual activity.
1. CCN(CC)C(=O)c1ccc(Nc2nc(OCC3CCCCC3)c3nc[nH]c3n2)cc1
2. O=C1NC(=O)C(c2cn(CCCn3ccnc3)c3ccccc23)=C1Nc1ccccc1
3. CO[C@H]1CC2CC[C@@H](C)[C@@](O)(O2)C(=O)C(=O)N2CCCC[C@H]2C(=O)OC([C@H](C)C[C@@H]2CC[C@@H](O)[C@H](OC)C2)CC(=O)[C@H](C)/C=C(\C)[C@@H](O)[C@@H](OC)C(=O)[C@H](C)C[C@H](C)/C=C/C=C/C=C/1C (some centres undefined)

A.
["106%", "102%", "107%"]
